molecular target: human glucagon receptor (Homo sapiens, UniProt P47871); construct: expressed in transfected cells; host or cells: BHK (baby hamster kidney) cells, membrane preparation; assay: Glucagon Binding Assay (II); settings: membranes of BHK cells transfected with human glucagon receptor, 125I-glucagon, SPA; read-out: Glu Bd Assay (II) IC50
Sequence (P47871 26-477): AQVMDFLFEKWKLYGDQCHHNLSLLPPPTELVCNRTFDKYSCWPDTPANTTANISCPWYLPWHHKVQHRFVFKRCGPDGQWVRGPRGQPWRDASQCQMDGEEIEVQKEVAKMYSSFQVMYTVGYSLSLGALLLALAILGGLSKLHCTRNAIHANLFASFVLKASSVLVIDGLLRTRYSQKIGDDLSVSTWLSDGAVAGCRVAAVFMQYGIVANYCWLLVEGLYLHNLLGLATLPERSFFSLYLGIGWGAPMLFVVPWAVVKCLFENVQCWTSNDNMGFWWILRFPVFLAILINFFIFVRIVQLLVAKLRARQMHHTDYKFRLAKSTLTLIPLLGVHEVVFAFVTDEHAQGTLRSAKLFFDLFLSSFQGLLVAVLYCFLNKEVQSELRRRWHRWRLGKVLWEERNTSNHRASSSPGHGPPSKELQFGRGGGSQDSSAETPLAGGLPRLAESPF
assay_endpoint: IC50 (nM)
One number for each entry, in nM.

O=C(NC[C@@H](O)C(=O)O)c1ccc(CN(C(=O)Nc2ccccc2)c2ccc(C3=CCCCC3)cc2)cc1 ... 293
O=C(NC[C@@H](O)C(=O)O)c1ccc(CN(C(=O)Nc2ccc3c(c2)C(F)(F)OC(F)(F)O3)c2ccc(C3CCCCC3)cc2)cc1 ... 17
O=C(NC[C@@H](O)C(=O)O)c1ccc(CN(CC(c2ccccc2)c2ccccc2)C(=O)Cc2ccc(OC(F)(F)F)cc2)cc1 ... 1020

Proceeding to the next compound to report its IC50.
Value (IC50, human glucagon receptor (Homo sapiens, UniProt P47871)) for record `O=C(NC[C@@H](O)C(=O)O)c1ccc(CN(C(=O)Nc2cc(C(F)(F)F)cc(C(F)(F)F)c2)c2ccc(C3CCCCC3)cc2)cc1` = 12

* * *

Target: human GIP receptor (Homo sapiens, UniProt P48546)
Construct: expressed in transfected cells; host or cells: BHK (baby hamster kidney) cells, membrane preparation
Sequence (P48546 22-466): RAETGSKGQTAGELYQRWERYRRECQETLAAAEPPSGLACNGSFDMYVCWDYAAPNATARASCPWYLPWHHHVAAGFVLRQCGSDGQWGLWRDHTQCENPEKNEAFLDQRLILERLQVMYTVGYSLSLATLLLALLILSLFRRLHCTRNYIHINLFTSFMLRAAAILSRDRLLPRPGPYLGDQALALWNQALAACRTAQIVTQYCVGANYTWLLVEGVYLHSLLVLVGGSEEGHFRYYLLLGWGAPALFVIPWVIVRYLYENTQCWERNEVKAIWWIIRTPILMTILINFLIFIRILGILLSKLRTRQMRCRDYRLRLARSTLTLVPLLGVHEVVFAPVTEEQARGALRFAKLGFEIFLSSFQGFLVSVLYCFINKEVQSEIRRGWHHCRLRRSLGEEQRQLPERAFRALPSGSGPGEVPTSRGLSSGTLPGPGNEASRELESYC
Experiment: GIP Binding Assay
Conditions: membranes of BHK cells transfected with human GIP receptor, 125I-GIP, SPA; read-out: GIP Bd Assay IC50
assay_endpoint: IC50

Solved entries (count: 3):
CO[C@H](CNC(=O)c1ccc(CN(C(=O)Nc2cc(Cl)cc(Cl)c2)c2ccc(C3=CCCCC3)cc2)cc1)C(=O)O [Example 31] ... ≥ 3 µM
CC(C)(C)C1CCC(N(Cc2ccc(C(=O)NC[C@@H](O)C(=O)O)cc2)C(=O)Cc2cc(F)cc(C(F)(F)F)c2)CC1 (stereo partly shown) [Example 57] ... > 3 µM
O=C(NC[C@H](O)C(=O)O)c1ccc(CN(C(=O)Nc2cc(Cl)cc(Cl)c2)c2ccc(C3=CCCCC3)cc2)cc1 [Example 18] ... > 1.5 µM

For each listed entry, give its IC50.
1. O=C(NC[C@@H](O)C(=O)O)c1ccc(CN(C(=O)CCc2cc(C(F)(F)F)cc(C(F)(F)F)c2)c2ccc(C3CCCCC3)cc2)cc1 [Example 72]
2. O=C(NC[C@@H](O)C(=O)O)c1ccc(CN(C(=O)Cc2ccc3ccccc3c2)c2ccc(C3CCCCC3)cc2)cc1 [Example 71]
3. O=C(NC[C@@H](O)C(=O)O)c1ccc(CN(C(=O)Nc2ccc(F)c(F)c2)c2ccc(C3=CCCCC3)cc2)cc1 [Example 48]

Marked response:
1: > 3 µM; 2: > 3 µM; 3: > 3 µM

Kindly note the recorded IC50 for O=C(NC[C@@H](O)C(=O)O)c1ccc(CN(C(=O)Cc2cc(F)cc(C(F)(F)F)c2)c2ccc(C3CCCCC3)cc2)cc1 [Example 65] , which is > 3 µM

* * *

target: human glucagon receptor (Homo sapiens); construct: expressed in transfected cells; host or cells: BHK (baby hamster kidney) cells, membrane preparation; assay: Glucagon Binding Assay (II); conditions: membranes of BHK cells transfected with human glucagon receptor, 125I-glucagon, SPA; read-out: Glu Bd Assay (II) IC50
assay_endpoint: pIC50
Give bare numbers, as −log10 of the molar value.

Solved entries (count: 3):
O=C(NC[C@@H](O)C(=O)O)c1ccc(CN(C(=O)Nc2ccc(Cl)c(C(F)(F)F)c2)c2ccc(C3CCCCC3)cc2)cc1 ... 7.60
CC(NC(=O)N(Cc1ccc(C(=O)NC[C@@H](O)C(=O)O)cc1)c1ccc(C2CCCCC2)cc1)c1ccc(Br)cc1 (mixture of isomers) ... 6.41
O=C(NC[C@@H](O)C(=O)O)c1ccc(CN(C(=O)Nc2ccc(F)c(F)c2)c2ccc(C3CCCCC3)cc2)cc1 ... 7.19

For each listed entry, give its pIC50.
1. O=C(NC[C@@H](O)C(=O)O)c1ccc(CN(C(=O)Nc2ccc(OC(F)(F)F)c(CO)c2)c2ccc(C3CCCCC3)cc2)cc1
2. CC(C)(C)c1ccc(N(Cc2ccc(C(=O)NC[C@@H](O)C(=O)O)cc2)C(=O)Nc2ccc(Cl)c(Cl)c2)cc1
3. CC(C)(C)c1ccc(N(Cc2ccc(C(=O)NC[C@@H](O)C(=O)O)cc2)C(=O)Nc2ccc3c(c2)C(F)(F)OC(F)(F)O3)cc1

Marked response:
1. 7.74
2. 6.97
3. 7.41
